These measurements were taken from ChEMBL document CHEMBL4364250.

- assay.target: Proteasome Macropain subunit MB1 (Homo sapiens, UniProt P28074)
- Sequence (P28074 whole entry): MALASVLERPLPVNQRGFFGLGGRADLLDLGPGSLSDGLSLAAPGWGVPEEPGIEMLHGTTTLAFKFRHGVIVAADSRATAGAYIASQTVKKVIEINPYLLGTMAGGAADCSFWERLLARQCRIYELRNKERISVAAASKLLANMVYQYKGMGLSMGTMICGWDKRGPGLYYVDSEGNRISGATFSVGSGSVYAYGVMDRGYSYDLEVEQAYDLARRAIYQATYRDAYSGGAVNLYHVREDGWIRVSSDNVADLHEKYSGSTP
- experiment: Inhibition of human beta5 20S constitutive proteasome using suc-LLVY-AMC as substrate
Measured IC50, listed per entry for reference.

Some entries whose results are on file:
smiles.repr: Cc1ccc(S(=O)(=O)N[C@@H](CC(=O)NC(C)(C)C)C(=O)NCCNC(=O)c2cccc(F)c2)cc1
reported.metric: IC50
value.measured: 2.2 µM
--
smiles.repr: Cc1ccc(S(=O)(=O)N[C@@H](CC(=O)NC(C)(C)C)C(=O)NCCNC(=O)Nc2ccccc2)cc1
reported.metric: IC50
value.measured: > 100 µM
--
smiles.repr: Cc1ccc(S(=O)(=O)N[C@@H](CC(=O)NC(C)(C)C)C(=O)NCCNC(=O)c2ccccc2F)cc1
reported.metric: IC50
value.measured: 1.14 µM
--
smiles.repr: Cc1ccc(S(=O)(=O)N[C@@H](CC(=O)NC(C)(C)C)C(=O)NCCNC(=O)c2cc(Cl)ccn2)cc1
reported.metric: IC50
value.measured: > 100 µM
--
smiles.repr: C#Cc1cccc(C(=O)NCCNC(=O)[C@H](CC(=O)NC(C)(C)C)NS(=O)(=O)c2ccc(C)cc2)c1
reported.metric: IC50
value.measured: 0.43 µM
--
smiles.repr: Cc1ccc(S(=O)(=O)N[C@@H](CC(=O)NC(C)(C)C)C(=O)NCCNC(=O)c2ccccc2O)cc1
reported.metric: IC50
value.measured: 0.409 µM
--
smiles.repr: Cc1ccc(S(=O)(=O)N[C@@H](CC(=O)NC(C)(C)C)C(=O)NCCNC(=O)c2ccccc2Cl)cc1
reported.metric: IC50
value.measured: 26 µM
--
smiles.repr: Cc1ccc(S(=O)(=O)N[C@@H](CC(=O)NC(C)(C)C)C(=O)NCCNC(=O)c2ccc(F)cc2)cc1
reported.metric: IC50
value.measured: 6.7 µM

Request - read-out IC50 | tested on Proteasome Macropain subunit MB1 (Homo sapiens, UniProt P28074) | compound Cc1ccc(S(=O)(=O)N[C@@H](CC(=O)NC(C)(C)C)C(=O)NCCNC(=O)c2ccc(F)c(F)c2)cc1 6.04 µM

Query Cc1ccc(S(=O)(=O)N[C@@H](CC(=O)NC(C)(C)C)C(=O)NCCNC(=O)c2cccc(C#N)c2)cc1 next 40.2 µM

# repeat for Cc1ccc(S(=O)(=O)N[C@@H](CC(=O)NC(C)(C)C)C(=O)NCCNC(=O)c2cccc(C(F)(F)F)c2)cc1 37.1 µM

Same lookup for Cc1ccc(S(=O)(=O)N[C@@H](CC(=O)NC(C)(C)C)C(=O)NCCNC(=O)c2cc(C)ccn2)cc1 , please. > 100 µM

Would you kindly repeat that for Cc1ccc(S(=O)(=O)N[C@@H](CC(=O)NC(C)(C)C)C(=O)NCCNC(=O)c2ccccn2)cc1 ? 29.4 µM
